Hello, the source for this data is patent US9889088B2, in case you need it.

Experiment: Corneal penetration assay
recorded.metric: Papp (×10⁻⁶ cm/s)
Provide the reading as a plain figure in ×10⁻⁶ cm/s.

[
  {
    "input.smiles": "Brc1c(NC2=NCCN2)ccc2nccnc12",
    "units": "×10⁻⁶ cm/s",
    "Papp": 8.57
  }
]

Prompt: Indicate its recorded Papp; the molecule in question is Brc1c(N=C2NCCN2)ccc2[nH]cnc12
Response: 0.119
